Recorded values, source the supplement of paper PMC10065799.

# TARGET OR SYSTEM: c-Src SH2;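 further: peptide library displayed on the E. coli surface as eCPX fusions, selected cells deep-sequenced, score is each peptide's frequency after selection divided by its frequency in the input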
# MEASUREMENT PROTOCOL: SH2 binding enrichment of the phosphorylated peptide, bacterial display (enrichment ratio); higher = better substrate or ligand; peptides without Tyr show the background
ENDPOINT LABEL: SH2 binding enrichment

{"columns": ["SEQUENCE RECORD", "REPORTED VALUE"],
 "data": [
  ["SSAAGYACLAY [MVD_Y131]", 2.42],
  ["VHNLNYYKKTT [FGFR3_Y647_D646N]", 0.539],
  ["QNAGDYYDLYG [PTPN11_Y62_T59A]", 0.687],
  ["IGEGTYGVVFK [CDK2_Y15_YF]", 0.457],
  ["NQDRTYFESVR [SPEN_Y632_YF]", 0.555],
  ["SILTVYSKDNY [PANK2_Y400_A398T]", 0.676],
  ["SVTCTYSPALY [TP53_Y126_N131Y]", 0.397],
  ["ALWFIYLHTRS [ENG_Y614_S615L_YF]", 0.564],
  ["STKELYEKFMI", 0.615],
  ["GGDAVYTNGAI [RFX2_Y82]", 0.491],
  ["VVTFSYKPPGN [RBL2_Y544]", 0.711],
  ["KPLMPYMRYSR [SMARCE1_Y73]", 0.402],
  ["HRGCLYLAIEY [TEK_Y899_Y897C]", 0.423],
  ["VMSMNYRVGAL [BCHE_Y174_V170M]", 0.461],
  ["SESSFYKSLNL [NGEF_Y289_A286S_YF]", 0.48],
  ["LDAGEYCVPRG [BEX1_Y43]", 0.453],
  ["SKEPFYVRCIK [MYO1D_Y586_YF]", 0.413],
  ["PVVKLYATDGR [RP1_Y199]", 0.569],
  ["SNYRAYATEPH [TNNI3_Y29]", 0.378],
  ["PHRSIYFSSPK [MPG_Y75_Y71H]", 0.46],
  ["AQADIYKADFQ [IKBKG_Y308]", 0.421],
  ["FSALDYKIFFF [WDPCP_Y210_L205F_YF]", 0.449],
  ["LEQDEYALRSH [HADHB_Y244]", 0.504],
  ["IGSQRYKLGVR [RB1_Y446]", 0.798],
  ["IEEGTYGVVFR [CDK11B_Y449_YF]", 0.349],
  ["HVPEEYKPKQG [SAXO2_Y37]", 0.512],
  ["FAASSYSFSDL [EMD_Y59_S54F]", 0.825],
  ["KSIQLYDTPFE [SHB_Y297_G293S_YF]", 2.03],
  ["TAPYNYSYIFK [RAB14_Y8]", 13.7],
  ["AGITAYQSCLQ [ADGRA2_Y377]", 0.395],
  ["ETLLFYGFRRS [POR_Y564_C566Y_YF]", 0.356],
  ["FPPTHYIRRVP [SLC4A11_Y820_YF]", 0.374],
  ["LEVETYRRLLD [KRT12_Y429_I426V]", 0.467],
  ["AAAAMYTFLPD [MYORG_Y36]", 4.32],
  ["YFVVEYRDQKP [MUC17_Y4332]", 3.98],
  ["IFGEEYEEQPR [ZMYM2_Y1033_V1028I]", 0.561],
  ["TNRSVYFKPSL [NUP153_Y382]", 0.588],
  ["AKLVQYYMEHH [PTPN11_Y80_E76K]", 0.718],
  ["KSNSDYVDVLP [SH2D1B_Y127_N122K]", 0.475],
  ["ENQEIYQKAFD [KPNA1_Y493]", 0.47],
  ["VEFAKYGSLRG [RET_Y809_YF]", 0.584],
  ["DPNQQYYIAMD [TBX15_Y159_H156N]", 1.44],
  ["NNIDYYKKTTN [FGFR2_Y657]", 0.459],
  ["HILRVYSGVLP [PCNX4_Y999_G1000S]", 1.44],
  ["PCLLRYLQLDF [ASB10_Y457_R453C]", 1.26],
  ["GKFFQYDTWNQ [IGF2_Y116_K120N]", 0.761],
  ["KEDSVYGSQSV [NFKB2_Y868_A867V]", 0.389],
  ["GDKKAYVRLAP [RPL23A_Y137_E133D]", 0.54],
  ["KSIDEYLKLVG [RASAL2_Y381_E379D]", 0.556],
  ["ADYPDCKYRPR [SOX11_Y116_Y116C]", 0.634]
]}
